assay: NCI Yeast Anticancer Drug Screen. Data for the rad50 strain (AID 155);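 also: 0% = growth of vehicle-only cultures of the same strain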; settings: S. cerevisiae rad50 strain growth inhibition; at 1.2 µM
Compounds without any hit were thinned out: in the full panel of roughly 79,000, 15% have a hit. Activity calls are given as the source filed them. Rule as the data show it: active = growth inhibition above about 70%; inactive = the rest.
Outcomes you can answer with include only these: active, inactive

[
  {
    "compound": "O=NC1c2cccc3cccc(c23)C1N=O (stereo not drawn)",
    "qualitative.label": "inactive"
  },
  {
    "compound": "O=CC1(F)CC1(c1ccccc1)c1ccccc1 (stereo not drawn)",
    "qualitative.label": "inactive"
  },
  {
    "compound": "O=C1C[C@H]2[C@H](c3ccc(Br)cc3)[C@H]3C(=O)c4ccccc4NC(=O)[C@@H]3[C@@]2(O)c2ccccc2N1",
    "qualitative.label": "inactive"
  },
  {
    "compound": "N#Cc1nc(Nc2ccc(Cl)cc2)sc1N",
    "qualitative.label": "inactive"
  }
]

// switching to the query compound
q: Per the records of this test, what outcome belongs to O=C1C2=C(c3ccccc31)C(c1ccccc1)N1C(=O)CSC1=N2 (stereo not drawn) ?
a: inactive

====

test: NCI Yeast Anticancer Drug Screen. Data for the cln2 rad14 strain (AID 165);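 also: 0% = growth equal to vehicle treated cultures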; conditions: S. cerevisiae cln2 rad14 strain, at 5.0 µM (retest, dose inferred, filed as 0.5), hits give high values
About 79,000 compounds went through this panel and 15% of them were active in at least one assay; those are over-represented in the sample as a whole.
value.type: growth inhibition (%)
Numbers only, in %.

// below: answered molecules
[
  {
    "input.smiles": "NCCOc1ccc(/C(=C(/Cl)c2ccccc2)c2ccccc2)cc1",
    "growth inhibition [%]": 37
  },
  {
    "input.smiles": "CCCCCCCCCC(=O)N(CCC)CCC",
    "growth inhibition [%]": 48
  }
]

Hey, can you go through the list below and give me growth inhibition for every item?
1. O=C(/N=N/C(=O)Oc1ccccc1)Oc1ccccc1
2. c1ccc([P+](CCN2Cc3ccccc3C2)(c2ccccc2)c2ccccc2)cc1
3. O=S(=O)(c1ccccc1)N1CN2CN(C1)CN(S(=O)(=O)c1ccccc1)C2

a:
1. 5
2. 23
3. 44

====

experiment: NCI Yeast Anticancer Drug Screen. Data for the rad18 strain (AID 177); conditions: S. cerevisiae rad18 mutant growth inhibition; at 33.0 µM; hits give high values
The panel holds about 79,000 compounds, 15% with a hit somewhere; the sample as a whole holds those more often.
value.type: growth inhibition (%)
Numbers only, in %.

The following compounds have reported results that may help.
[
  {
    "compound": "O=C1c2ccccc2C(=O)c2c(O)c(NCCNCCO)cc(O)c21",
    "val": 89
  },
  {
    "compound": "COc1ccc(-c2cc(-c3cc(C)cc(Cl)c3O)nc3[nH]c(=S)[nH]c(=S)c23)cc1",
    "val": 8
  },
  {
    "compound": "CCCCCCCCCCCCCCN",
    "val": 24
  },
  {
    "compound": "CC(/C=C/c1ccc([N+](=O)[O-])o1)=N/N1CC(CN2CCOCC2)OC1=O (stereo unspecified)",
    "val": 97
  },
  {
    "compound": "C[n+]1c(-c2ccc(/C=N/NC(=O)c3ccc(C(=O)N/N=C/c4ccc(-c5cn6ccccc6[n+]5C)cc4)cc3)cc2)cn2ccccc21",
    "val": 55
  }
]

Batch: growth inhibition for all items listed.
1. O=C1C(=O)N(c2ccccc2)[C@@]2(c3ccccc3)C(=Nc3ccccc3)OC(c3ccccc3)=C12
2. Cc1cc(C)c2[s+]snc2c1
3. CC(C)OC(=O)NNc1c(Cl)cc(Cl)cc1Cl
4. CCN(CC)CCNc1ccc2ncn3c4ccc(O)cc4c(=O)c1c23
5. COC(=O)C(=O)c1c(-c2ccc(Cl)c(Cl)c2)[nH]c2[nH]n(-c3ccccc3)c(=O)c2c1=O
6. O=C(NC(N1CCN(c2cc3c(cc2F)c(=O)c(C(=O)O)cn3C2CC2)CC1)(C(F)(F)F)C(F)(F)F)c1ccccc1
7. C/C(=N/NC(=S)Nc1ccccc1C)c1ccccn1

a:
1: 4; 2: 27; 3: 40; 4: -8; 5: 49; 6: 20; 7: -17

====

test: NCI Yeast Anticancer Drug Screen. Data for the mec2-1 strain (AID 157); conditions: S. cerevisiae mec2-1 strain, at 1.2 µM, hits give high values
About 79,000 compounds went through this panel and 15% of them were active in at least one assay; those are over-represented in the sample as a whole. Activity calls are given as the source filed them. Cut-off read from the data, not from the text of the source: active = growth inhibition above about 70%; inactive = the rest.
value.type: growth inhibition

Batch lookup, growth inhibition per entry.
1. COC(=O)c1ccccc1N=NNc1cccc(SC)c1
2. O=C(O)c1ccccc1C(=O)OC1CCc2ccccc2C1 (stereo unspecified)

a:
1% (inactive)
-6% (inactive)

Provide growth inhibition values for the following items, in order.
1. O=C(O)C1CCCCC1c1c2ccc(=O)cc-2oc2cc(O)ccc12 (stereo unspecified)
2. Oc1ccc(N=Nc2ccc(Cl)cc2)cc1
3. O=C(O)CNC(c1ccccc1)(c1ccccc1)c1ccccc1
4. O=C(/N=N/C(=O)Oc1ccccc1)Oc1ccccc1
5. COc1ccc2nc3cccc([N+](=O)[O-])c3c(NCCNCCN(C)C)c2c1
6. C[n+]1c(/C=C/c2ccc(/C=N/NC(=O)c3ccc(C(=O)N/N=C/c4ccc(/C=C/c5cn6ccccc6[n+]5C)cc4)cc3)cc2)cn2ccccc21
7. S=C1C(=Nc2ccccc2)N(c2ccccc2)/C(=N\c2ccccn2)N1c1ccccc1
8. O=C(Nn1c(-c2ccccc2)nc2ccccc2c1=O)c1ccc(CS)cc1

a:
1. -3% (inactive)
2. 8% (inactive)
3. -1% (inactive)
4. -97% (inactive)
5. 2% (inactive)
6. 62% (inactive)
7. -7% (inactive)
8. -4% (inactive)

For each of the compounds below, state growth inhibition.
1. CCN1CCC(O)(c2ccc(Oc3ccc(C)cc3)cc2)C(C(=O)c2ccc(Oc3ccc(C)cc3)cc2)C1 (stereo unspecified)
2. O=C1c2ccccc2-c2cc3ccccc3c(=O)n21
3. COC(=O)C1CCCCC1C(=O)Nc1ccccc1 (stereo unspecified)
4. CC1(C)CC(=O)C(/C=N/c2nc(-c3ccc(Br)cc3)cs2)=C(O)C1

a:
1: -9% (inactive); 2: 13% (inactive); 3: -3% (inactive); 4: 7% (inactive)

Hi! Can you tell me growth inhibition for each of these compounds?
1. COc1ccc2nc3cccc([N+](=O)[O-])c3c(NCCNCCO)c2c1
2. COC1=CCC23C(=O)C=CC(=O)C2(C1)C(=O)c1ccccc1C3=O (stereo unspecified)
3. Nc1ccc(/C=C/c2ccc3cccnc3c2)cc1
4. CCC(C)COC(=O)Nc1cccc(Cl)c1 (stereo unspecified)
5. O=C(C#Cc1ccccc1)Nc1ccccc1
6. O=[N+]([O-])c1ccc2[nH]c3c(-c4ccccc4)nccc3c2c1
7. CC1=CC(=C(c2ccc(N)c(C)c2)c2ccc(N)c(C)c2)C=CC1=N

a:
["17% (inactive)", "8% (inactive)", "-2% (inactive)", "-5% (inactive)", "-9% (inactive)", "-4% (inactive)", "1% (inactive)"]

====

assay: NCI Yeast Anticancer Drug Screen. Data for the wt1 strain (AID 149);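 also: 0% = growth of vehicle-treated wt1 cultures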; details: S. cerevisiae wt1 strain (SPY 50644) growth inhibition; at 11.0 µM; hits give high values
The panel holds about 79,000 compounds, 15% with a hit somewhere; the sample as a whole holds those more often.
value.type: growth inhibition (%)
One number for each entry, in %.

[
  {
    "molecule": "O=C1C=CC(=Nc2cccc3c2-c2ccccc2C3=O)O1",
    "unit.spec": "%",
    "growth inhibition": 42
  }
]

For every item in the list below, what is its measured growth inhibition?
1. O=C(Nc1cccs1)c1ccccc1
2. CC(C)C(c1ccccc1)c1ccccc1
3. CC1CCN(CCC(=O)c2ccc([N+](=O)[O-])cc2)CC1
4. CCN(CC)CCNc1ccc2nc(C)n3c4ccc(O)cc4c(=O)c1c23
5. CN1C(=O)C(CC(=O)O)NC1=S (centres undefined)
6. O=C(c1cc(=O)c2ccc(O)cc2o1)c1ccc(Cl)cc1Cl
7. O=C(Nc1ccc(Cl)cc1)c1cc2cc(N=Nc3ccccc3Cl)ccc2oc1=O
8. O=C(NNc1ccccc1)C(CCCCNS(=O)(=O)Cc1ccccc1)NS(=O)(=O)Cc1ccccc1 (centres undefined)

a:
[-8, 0, 1, -2, 1, -2, 26, 26]

====

experiment: NCI Yeast Anticancer Drug Screen. Data for the wt2 strain (AID 169);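 also: 0% = growth of vehicle-treated yeast cultures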; settings: S. cerevisiae wt2 strain growth inhibition; at 33.0 µM; hits give high values
The panel holds about 79,000 compounds, 15% with a hit somewhere; the sample as a whole holds those more often.
Hi all, reminder that labels come from growth inhibition, split as c1 = under 30%, c2 = from 30% up to 90%, c3 = 90% and over

Here's what some known entries look like.
[
  {
    "input.smiles": "CCOP(=O)(OCC)/C(C#N)=C/c1ccc(-c2ccc(F)cc2F)o1",
    "qualitative.label": "c1"
  },
  {
    "input.smiles": "CCCCCCCCCCCCCCN",
    "qualitative.label": "c1"
  },
  {
    "input.smiles": "S=C1C(=Nc2ccccc2)N(c2ccccc2)/C(=N\\c2ccccn2)N1c1ccccc1",
    "qualitative.label": "c3"
  },
  {
    "input.smiles": "COC(=O)c1cnc(Cl)c([N+](=O)[O-])c1",
    "qualitative.label": "c3"
  },
  {
    "input.smiles": "CC1(C)CC(=O)C(/C=N/c2nc(-c3ccc(Br)cc3)cs2)=C(O)C1",
    "qualitative.label": "c3"
  }
]

q: Just checking, what class would you give "O=C(Oc1ccc([N+](=O)[O-])cc1)c1ccc([N+](=O)[O-])cc1" here?
a: c1

q: Kindly identify the class of "Cc1c2c(nc3ccccc13)C(=O)c1cccnc1C2=O" .
a: c1

q: Category lookup for the compound "CC(C)OC(=O)NNc1cc(Cl)ccc1Cl"
a: c1

q: Each compound maps to one class by growth inhibition. Which class for "CCN(CC)C(=S)SC(=S)N(CC)CC" ?
a: c3

q: Which class is correct for the following compound? "CCCCN(CCC#N)c1ccc(/C=C/c2ccnc3ccccc23)cc1"
a: c2

q: Into which bin does this compound go? "CC1=COC2=C(C)C(=O)C(=O)c3c(C)ccc1c32"
a: c1

q: Determine which band this compound sits in: "CCOP(=O)(OCC)/C(C#N)=C\c1cccc2ccccc12"
a: c2

q: Classify this compound: "CC(C)NCCCNc1c2ccccc2nc2cccc([N+](=O)[O-])c12"
a: c3

q: Quick check: band for "N#Cc1nc(Nc2ccc(Cl)cc2)sc1N"
a: c2

q: Hi there! Could you help me figure out the category for "COc1ccc2nc3cccc([N+](=O)[O-])c3c(NCCCCCC(=O)O)c2c1" please?
a: c3

q: Band for the recorded growth inhibition of "NC(=O)NC1C(c2ccccc2)=C1c1ccccc1" ?
a: c2

q: Quick check: band for "COC(=O)C(=O)c1c(-c2ccc(Cl)c(Cl)c2)[nH]c2[nH]n(-c3ccccc3)c(=O)c2c1=O"
a: c2

q: Please indicate the class for "O=S(=O)(NNc1ccccc1)c1ccccc1" based on its growth inhibition.
a: c1

q: Classify this compound: "COC(=N)c1ccc(O)c(C)c1"
a: c1
